# subject-of-test: Human Notch3-Gal4-VP16 (human)
# assay-details: cell-based or functional assay
quantity-name: IC50, Delta 1 co-culture Notch3 reporter gene assay (nM)

binder	reading
20345 (antibody, human IgG1, kappa, V domains shown) VH: QVQLVQSGAEVKKPGSSVKVSCKASGGTFSSYTISWVRQAPGQGLEWMGWIKPKLGMAHYAQKFQGRVTITADESTSTAYMELSSLRSEDTAVYYCARGSFWFGYWGQGTLVTVSS VL: DIQMTQSPSSLSASVGDRVTITCRASQGINNYLNWYQQKPGKAPKLLIYDASKLQSGVPSRFSGSGSGTDFTLTISSLQPEDFATYYCQQYLQYPMTFGQGTKVEIKR	0.3
12229 (antibody, human IgG1, lambda, V domains shown) VH: QVQLVESGGGLVKPGGSLRLSCAASGFTFSSYTMNWVRQAPGKGLEWVGRIKTKTNGGTTDYAAPVKGRFTISRDDSKNTLYLQMNSLKTEDTAVYYCARERSRAGSIFDPWGQGTLVTVSS VL: DIVLTQPPSVSGAPGQRVTISCSGSSSNIGFNYVSWYQQLPGTAPKLLIYYNNQRPSGVPDRFSGSKSGTSASLAITGLQAEDEADYYCSTWTGTSESHVFGGGTKLTVLG	5.5
